tested on: MDCK p60AmotL2-inducible + doxycycline (p60AmotL2 expressing); assay: drug sensitivity score (DSS) from 5-dose viability curve (DSS (area-based score, 0 = no response)); higher = more sensitive (stronger viability inhibition); extreme values may be limits of the assay; settings: doxycycline: 10 ng/mL; 72 h
Reported drug sensitivity score values follow for various compounds
Write the value as a bare number.

[[record]]
compound = "CO[C@H]1C[C@@H]2CC[C@@H](C)[C@@](O)(O2)C(=O)C(=O)N2CCCC[C@H]2C(=O)O[C@H]([C@H](C)C[C@@H]2CC[C@@H](OP(C)(C)=O)[C@H](OC)C2)CC(=O)[C@H](C)/C=C(\\C)[C@@H](O)[C@@H](OC)C(=O)[C@H](C)C[C@H](C)/C=C/C=C/C=C/1C [Ridaforolimus]"
readout = "drug sensitivity score"
reported = 9.8

[[record]]
compound = "CC(C)n1nc(-c2ccc3oc(N)nc3c2)c2c(N)ncnc21 [Sapanisertib]"
readout = "drug sensitivity score"
reported = 13.4

[[record]]
compound = "CCS(=O)(=O)N1CC(CC#N)(n2cc(-c3ncnc4[nH]ccc34)cn2)C1 [Baricitinib]"
readout = "drug sensitivity score"
reported = 0


// moving on: another record for drug sensitivity score
Name the recorded drug sensitivity score of the compound listed here: CC[C@@]1(O)C(=O)OCc2c1cc1n(c2=O)Cc2cc3c(CN(C)C)c(O)ccc3nc2-1 [Topotecan]
11.5

---

Reported drug sensitivity score values follow for various compounds
test system: MDCK p60AmotL2-inducible + doxycycline (p60AmotL2 expressing); assay: drug sensitivity score (DSS) from 5-dose viability curve (DSS (area-based score, 0 = no response)); higher = more sensitive (stronger viability inhibition); extreme values may be limits of the assay; settings: doxycycline: 10 ng/mL; 72 h

Worked examples, 3 compounds total:
[[record]]
chem_smiles = "C=CC[C@@H]1/C=C(\\C)C[C@H](C)C[C@H](OC)[C@H]2O[C@@](O)(C(=O)C(=O)N3CCCC[C@H]3C(=O)O[C@H](/C(C)=C/[C@@H]3CC[C@@H](O)[C@H](OC)C3)[C@H](C)[C@@H](O)CC1=O)[C@H](C)C[C@@H]2OC"
reported = 0

[[record]]
chem_smiles = "CC[C@H](CC#N)OC(=O)N[C@@H](C)c1cccc(NC(=O)Nc2ccc(-c3cnco3)c(OC)c2)c1"
reported = 18.5

[[record]]
chem_smiles = "C[C@]12CC[C@H](O)CC1=CC[C@@H]1[C@@H]2CC[C@]2(C)C(c3cccnc3)=CC[C@@H]12"
reported = 0


Name the recorded drug sensitivity score of the compound listed here: `O=C(c1ccc(OCCN2CCCCC2)cc1)c1c(-c2ccc(O)cc2)sc2cc(O)ccc12`
6.1

Name the recorded drug sensitivity score of the compound listed here: `N#Cc1ccnc(N2C(=O)CC[C@H]2C(=O)N(c2cncc(F)c2)[C@H](C(=O)NC2CC(F)(F)C2)c2ccccc2Cl)c1`
0

Name the recorded drug sensitivity score of the compound listed here: `CNC(=O)c1ccc(-c2cnc3ncc(Cc4ccc5ncccc5c4)n3n2)cc1F`
0

---

Reported drug sensitivity score values follow for various molecules
system: MDCK p60AmotL2-inducible + doxycycline (p60AmotL2 expressing); experiment: drug sensitivity score (DSS) from 5-dose viability curve (DSS (area-based score, 0 = no response)); higher = more sensitive (stronger viability inhibition); extreme values may be limits of the assay; settings: doxycycline: 10 ng/mL; 72 h

[[record]]
molecule = "Cc1ccc(-n2nc(C(C)(C)C)cc2NC(=O)Nc2ccc(OCCN3CCOCC3)c3ccccc23)cc1"
reported = 0

[[record]]
molecule = "CC[C@@H]1[C@H](F)C(=O)N[C@@H]1COc1nccc2cc(C(N)=O)c(OC)cc12"
reported = 0.2

[[record]]
molecule = "Cc1sc2c(c1C)C(c1ccc(Cl)cc1)=N[C@@H](CC(=O)NCCCCNC(=O)COc1cccc3c1C(=O)N(C1CCC(=O)NC1=O)C3=O)c1nnc(C)n1-2 (stereo partly specified)"
reported = 9.3

[[record]]
molecule = "N#Cc1ccc(COC[C@H]2O[C@@H](n3c(NCc4ccc(Cl)c(Cl)c4)nc4c(N)ncnc43)[C@H](O)[C@@H]2O)cc1"
reported = 0

[[record]]
molecule = "O=C(NCc1ccncc1)C12CC3CC(C1)CC(c1ccc(Cl)cc1)(C3)C2"
reported = 6.4

[[record]]
molecule = "Cc1cc(Nc2cc(N3CCN(C)CC3)nc(/C=C/c3ccccc3)n2)n[nH]1"
reported = 10.7

[[record]]
molecule = "N[C@@H]1CCCN(c2c(/C=C3\\SC(=O)NC3=O)cccc2-c2ccccc2)C1"
reported = 1

[[record]]
molecule = "OC[C@H]1O[C@@H](n2cnc3c2N=CNC[C@H]3O)C[C@@H]1O"
reported = 0

[[record]]
molecule = "N#Cc1ccc(C(c2ccc(C#N)cc2)n2cncn2)cc1"
reported = 0

[[record]]
molecule = "CCNC(=O)C[C@@H]1N=C(c2ccc(Cl)cc2)c2cc(OC)ccc2-n2c(C)nnc21"
reported = 9.5


// moving on: another record for drug sensitivity score
Name the recorded drug sensitivity score of the molecule listed here: `CNC(=O)CN1CCC(Oc2cc3c(Nc4cccc(Cl)c4F)ncnc3cc2OC)CC1`
12.9

---

tested on: MDCK p60AmotL2-inducible + doxycycline (p60AmotL2 expressing); assay: drug sensitivity score (DSS) from 5-dose viability curve (DSS (area-based score, 0 = no response)); higher = more sensitive (stronger viability inhibition); extreme values may be limits of the assay; conditions: doxycycline: 10 ng/mL; 72 h
Category scheme (drug sensitivity score): lower bin (below 0.1), middle bin (0.1 to below 5), upper bin (5 or more)

Look over these answered cases.
[[record]]
compound = "COc1cccc2c1C(=O)c1c(O)c3c(c(O)c1C2=O)C[C@@](O)(/C(CO)=N/NC(=O)CCCCCN1C(=O)C=CC1=O)C[C@@H]3O[C@H]1C[C@H](N)[C@H](O)[C@H](C)O1"
study_system = "MDCK p60AmotL2-inducible + doxycycline (p60AmotL2 expressing)"
class_label = "upper bin"

[[record]]
compound = "O=C(O)c1ccc2c(c1)nc(Nc1cccc(Cl)c1)c1ccncc12"
study_system = "MDCK p60AmotL2-inducible + doxycycline (p60AmotL2 expressing)"
class_label = "middle bin"

[[record]]
compound = "CN[C@@H](C)C(=O)N[C@H](C(=O)N1CCC[C@H]1c1nc(C(=O)c2ccc(F)cc2)cs1)C1CCCCC1"
study_system = "MDCK p60AmotL2-inducible + doxycycline (p60AmotL2 expressing)"
class_label = "middle bin"

[[record]]
compound = "COc1ccc(-c2ccc3ncc4c(c3c2)n(-c2ccc(N3CCNCC3)c(C(F)(F)F)c2)c(=O)n4C)cn1"
study_system = "MDCK p60AmotL2-inducible + doxycycline (p60AmotL2 expressing)"
class_label = "upper bin"

[[record]]
compound = "Cc1cccc(-c2nn3c(c2-c2ccnc4ccc(C(N)=O)cc24)CCC3)n1"
study_system = "MDCK p60AmotL2-inducible + doxycycline (p60AmotL2 expressing)"
class_label = "lower bin"

[[record]]
compound = "CNC(=O)c1ccc(N2C(=S)N(c3cnc(C#N)c(C(F)(F)F)c3)C(=O)C23CCC3)cc1F [Apalutamide]"
study_system = "MDCK p60AmotL2-inducible + doxycycline (p60AmotL2 expressing)"
class_label = "lower bin"


# next compound below
Form field 'band' for `O=C(Nc1cccc(Nc2ncc(Br)c(NCCc3cnc[nH]3)n2)c1)N1CCCC1`
middle bin

---

test system: MDCK p60AmotL2-inducible + doxycycline (p60AmotL2 expressing); assay: drug sensitivity score (DSS) from 5-dose viability curve (DSS (area-based score, 0 = no response)); higher = more sensitive (stronger viability inhibition); extreme values may be limits of the assay; settings: doxycycline: 10 ng/mL; 72 h
Readout: drug sensitivity score

Worked examples, 3 molecules total:
[[record]]
molecule = "O=C(Nc1cc(Cl)cc2c1[nH]c1cnccc12)c1cccnc1 [PS-1145]"
study_system = "MDCK p60AmotL2-inducible + doxycycline (p60AmotL2 expressing)"
reported = 0

[[record]]
molecule = "Nc1cc(C(F)(F)F)c(-c2cc(N3CCOCC3)nc(N3CCOCC3)n2)cn1 [Buparlisib]"
study_system = "MDCK p60AmotL2-inducible + doxycycline (p60AmotL2 expressing)"
reported = 6.3

[[record]]
molecule = "O=C(O)CC[C@H]1CC[C@@](c2cc(F)ccc2F)(S(=O)(=O)c2ccc(Cl)cc2)CC1 [MK-0752]"
study_system = "MDCK p60AmotL2-inducible + doxycycline (p60AmotL2 expressing)"
reported = 0


// moving on: another record for drug sensitivity score
Name the recorded drug sensitivity score of the molecule listed here: O=c1[nH]c(=O)n([C@H]2C[C@H](O)[C@@H](CO)O2)cc1C(F)(F)F [Trifluridine]
2.6

---

test system: MDCK p60AmotL2-inducible + doxycycline (p60AmotL2 expressing); assay: drug sensitivity score (DSS) from 5-dose viability curve (DSS (area-based score, 0 = no response)); higher = more sensitive (stronger viability inhibition); extreme values may be limits of the assay; settings: doxycycline: 10 ng/mL; 72 h
Readout: drug sensitivity score
Write the value as a bare number.

Worked examples, 3 molecules total:
[[record]]
molecule = "CNc1ncc2cc(-c3cc(NC(=O)NCCC(C)(C)C)c(F)cc3C)c(C)nc2n1"
reported = 9

[[record]]
molecule = "O=C(Nc1cnn2ccc(N3CCC[C@@H]3c3cc(F)ccc3F)nc12)N1CC[C@H](O)C1 [Larotrectinib]"
reported = 0

[[record]]
molecule = "CS(=O)(=O)c1ccc(C(=O)Nc2ccc(Cl)c(-c3ccccn3)c2)c(Cl)c1 [Vismodegib]"
reported = 0


Name the recorded drug sensitivity score of the molecule listed here: O=C(CCCCCCNC(=O)c1cnc(N(c2ccccc2)c2ccccc2)nc1)NO [Rocilinostat]
7.2
